- Experiment Summary: ovarian cancer cell viability with rucaparib, profiling panel, oncology-focused library, rucaparib conditional (AID 1508598)
- Assay Context: patient-derived ovarian cancer cells, CellTiter-Glo viability, 144 h; at 0.00122 µM; OCI-P5x cells; with rucaparib 20 µM; hits give low values; 100% = cells with rucaparib alone
Active and inactive are the calls of the source.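 Rule for the calls: active = normalized viability below 100% at a tested concentration; inactive = the rest.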
Listed here are molecules together with their documented viability.

The following molecules have reported results that may help.
Test Smiles	viability
O=c1[nH]cc(F)c(=O)[nH]1	115% (inactive)
NC(=O)c1ccc(-c2nc(-c3ccc4c(c3)OCO4)c(-c3ccccn3)[nH]2)cc1	110% (inactive)
CC(C)C(=O)Nc1ccc([N+](=O)[O-])c(C(F)(F)F)c1	98.6% (active)

Prompt: Value lookup for viability; key = "CCCCCCNC(=O)n1cc(F)c(=O)[nH]c1=O"
Response: 115% (inactive)

Prompt: Return reported viability; argument: "O=c1[nH]cnc2[nH]ncc12"
Response: 105% (inactive)
